biological target: Sodium-dependent serotonin transporter (Homo sapiens, UniProt P31645); experiment: Inhibition of serotonin reuptake at human SERT expressed in HEK293 cells at 100 nM
Sequence (P31645 whole entry, looked up): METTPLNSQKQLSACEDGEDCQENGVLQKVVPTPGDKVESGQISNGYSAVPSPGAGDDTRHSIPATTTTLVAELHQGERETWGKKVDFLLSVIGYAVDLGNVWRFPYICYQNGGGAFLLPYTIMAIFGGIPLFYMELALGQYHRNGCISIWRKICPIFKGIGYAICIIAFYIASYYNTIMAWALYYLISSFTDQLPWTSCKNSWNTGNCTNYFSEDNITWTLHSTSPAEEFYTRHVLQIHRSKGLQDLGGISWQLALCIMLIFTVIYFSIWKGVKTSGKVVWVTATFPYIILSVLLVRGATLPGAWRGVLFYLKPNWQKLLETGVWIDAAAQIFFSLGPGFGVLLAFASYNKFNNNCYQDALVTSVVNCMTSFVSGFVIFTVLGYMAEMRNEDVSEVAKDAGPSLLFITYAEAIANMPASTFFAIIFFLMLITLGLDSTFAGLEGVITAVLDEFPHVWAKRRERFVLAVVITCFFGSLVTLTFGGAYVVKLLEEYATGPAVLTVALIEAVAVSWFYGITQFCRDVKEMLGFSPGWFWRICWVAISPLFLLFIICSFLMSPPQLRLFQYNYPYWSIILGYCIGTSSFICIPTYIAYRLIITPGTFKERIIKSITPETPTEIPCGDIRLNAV
Here, each record is paired with measured inhibition data.

{"molecule": "CN(C)CCC(c1ccc2ccccc2c1)n1ncnn1 (racemic)", "inhibition (%)": 41}
{"molecule": "CNCCC(c1ccc2cc(F)ccc2c1)n1nnc(C)n1 (racemic)", "inhibition (%)": 58}
{"molecule": "COc1ccc2cc(C(CCN(C)C)n3ncnn3)ccc2c1 (racemic)", "inhibition (%)": 44}
{"molecule": "CNCCC(c1ccc(Cl)c(Cl)c1)n1ncnn1 (racemic)", "inhibition (%)": 35}
